Emax: recorded values
# ASSAY TARGET: Cannabinoid receptor 2 (Homo sapiens, UniProt P34972)
# Sequence (P34972 whole entry): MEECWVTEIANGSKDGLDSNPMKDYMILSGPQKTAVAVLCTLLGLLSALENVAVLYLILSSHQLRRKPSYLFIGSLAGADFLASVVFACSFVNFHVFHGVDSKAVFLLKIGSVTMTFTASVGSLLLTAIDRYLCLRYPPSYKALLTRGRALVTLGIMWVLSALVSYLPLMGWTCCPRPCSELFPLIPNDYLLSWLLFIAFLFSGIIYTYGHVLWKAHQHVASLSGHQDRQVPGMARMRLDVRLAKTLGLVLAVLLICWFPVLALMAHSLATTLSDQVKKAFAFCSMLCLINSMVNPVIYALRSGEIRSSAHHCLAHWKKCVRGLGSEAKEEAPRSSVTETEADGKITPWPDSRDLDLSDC
# ASSAY PROTOCOL: Agonist activity at human CB2 receptor expressed in CHO cells assessed as stimulation of [35S]-GTPgammaS binding relative to basal activity
# Assay type: functional, cell-based
Supply the numeric figure in %, leaving out any unit text.

According to the records, this compound CCCCCCC(C)(C)c1ccc([C@@H]2C[C@H](O)CC[C@H]2CCCO)c(O)c1 displays Emax of 230

According to the records, this compound CCCCCn1cc(C(=O)NC23CC4CC(CC(C4)C2)C3)c(=O)cc1C displays Emax of 148

According to the records, this compound CCCCCn1cc(C(=O)NC2CCCCC2)c(=O)cc1-c1ccc(Cl)cc1 displays Emax of 39

According to the records, this compound CCCC(C)(C)c1ccc2c(c1)OC(C)(C)[C@@H]1CC=C(O)C[C@@H]21 displays Emax of 201

According to the records, this compound CCCCCn1cc(NC(=O)OC(C)(C)C)c(=O)cc1-c1ccccc1 displays Emax of 26

According to the records, this compound CCCCCn1cc(C(=O)NC2CCCCC2)c(=S)cc1-c1ccccc1 displays Emax of 45

According to the records, this compound CCCCCn1cc(NC(=O)C2CCCCC2)c(=O)cc1-c1ccccc1 displays Emax of 43
